Tested on: K-562 leukemia
Experiment: NCI tumour cell line growth inhibition, 48 h
measured.endpoint: GI50

compound	measured.endpoint	test.result
OC(COc1cccc2ccccc12)CN1CCN(c2ccccc2)CC1 (centres undefined)	GI50	13.7 µM
C/C(=C\CCc1ccoc1)CC/C=C(\C)CCCN1CCC(CO)CC1	GI50	1.52 µM
COc1cc2c3c(n(CCN(C)C)c(=O)c2cc1OC)-c1cc2c(cc1C3=O)OCO2	GI50	2.53 µM

Would you mind telling me what GI50 value was observed for `N#Cc1c(NC(=O)CN2CCOCC2)sc2c1CCCC2` ?
> 25 µM

---

Tested on: HCT-15 colon
Experiment: NCI tumour cell line growth inhibition, 48 h
measured.endpoint: TGI

compound	TGI
Cc1cc2c(cc1C)[n+](=O)c(C(=O)N1CCN(c3ccc([N+](=O)[O-])cc3)CC1)c(C)n2[O-]	> 100 µM

Would you mind telling me what TGI value was observed for `O=C(c1cccs1)c1c(C(F)(F)F)n([O-])c2ccc(F)cc2[n+]1=O` ?
1.64 µM

And `c1ccc2sc(C3(N4CCCCC4)CCCCCC3)cc2c1` ?
34.8 µM

And `O=C(Nc1ccccc1C(=O)O)/C(=C/c1ccccc1)NC(=O)c1ccccc1` ?
> 100 µM

And `CC1(C)C(=S)C(C)(C)C1=S` ?
> 100 µM

And COc1cc(C(C)c2cc3c(cc2OCCCCOc2cc4c(cc2C(C)c2cc(OC)c(OC)c(OC)c2)OCO4)OCO3)cc(OC)c1OC (stereo unspecified) ?
> 100 µM

And `O=C1c2ccccc2-c2c1c1ccccc1c(=O)n2CCCN1CCN(CCCn2c3c(c4ccccc4c2=O)C(=O)c2ccccc2-3)CC1` ?
> 100 µM

And O=C1c2nn(-c3ccccc3)nc2C(c2ccccc2)N1c1ccccc1 (stereo unspecified) ?
> 100 µM

---

System: MCF7 breast
Experiment: NCI tumour cell line growth inhibition, 48 h; in the data active = GI50 below about 0.43 µM; inactive = the rest
Please reply with one of these outcomes: active, inactive

Worked set:
molecule	study.system	class.name
CCCN(CCC)CCCNC(=O)c1cc2c(-c3ccc(OC)c(OC)c3)nn(C)c2s1	MCF7 breast	inactive
N#Cc1cccc(NC(=O)c2oc3ccccc3c2-c2cnn(-c3ccccc3)c2)c1	MCF7 breast	inactive
COC(=O)Nc1nc2cc3c(cc2s1)OCCO3	MCF7 breast	inactive
CC1OC(OC2CC(O)C3(CO)C4C(O)CC5(C)C(C6=CC(=O)OC6)CCC5(O)C4CCC3(O)C2)C(O)C(O)C1O (centres undefined)	MCF7 breast	active
N#Cc1c(-c2ccccc2)cc(-c2ccccc2)n(CCCCC(=O)NO)c1=O	MCF7 breast	inactive
CC(=O)OC[C@]12CC[C@@H]([C@@H](C)C(N)=O)[C@@H]1[C@H]1CC[C@@H]3[C@@]4(C)CC[C@H](OC(C)=O)C(C)(C)[C@@H]4CC[C@@]3(C)[C@]1(C)CC2	MCF7 breast	inactive
CNC(C)C(=O)N[C@H](C(=O)N1CCC[C@@H]1CN(CCc1ccccc1)C(=O)C(F)(F)F)[C@H](C)OCC#CC#CCO[C@H](C)[C@H](NC(=O)[C@H](C)NC)C(=O)N1CCC[C@H]1CN(CCc1ccccc1)C(=O)C(F)(F)F (some centres undefined)	MCF7 breast	active
COc1cccc(C2NC(=S)NC(C)=C2C(=O)Nc2ccc(F)c(Cl)c2)c1 (centres undefined)	MCF7 breast	inactive

Turning now to a further record.
Tell me the recorded outcome of this test for `Cc1nc(/N=C(\N)NC(=O)Nc2ccccc2Cl)sc1C` .
active
